Measured IC50, listed per entry.
# testedSystem: Lon protease homolog, mitochondrial (Homo sapiens, UniProt P36776)
# Sequence (P36776 whole entry): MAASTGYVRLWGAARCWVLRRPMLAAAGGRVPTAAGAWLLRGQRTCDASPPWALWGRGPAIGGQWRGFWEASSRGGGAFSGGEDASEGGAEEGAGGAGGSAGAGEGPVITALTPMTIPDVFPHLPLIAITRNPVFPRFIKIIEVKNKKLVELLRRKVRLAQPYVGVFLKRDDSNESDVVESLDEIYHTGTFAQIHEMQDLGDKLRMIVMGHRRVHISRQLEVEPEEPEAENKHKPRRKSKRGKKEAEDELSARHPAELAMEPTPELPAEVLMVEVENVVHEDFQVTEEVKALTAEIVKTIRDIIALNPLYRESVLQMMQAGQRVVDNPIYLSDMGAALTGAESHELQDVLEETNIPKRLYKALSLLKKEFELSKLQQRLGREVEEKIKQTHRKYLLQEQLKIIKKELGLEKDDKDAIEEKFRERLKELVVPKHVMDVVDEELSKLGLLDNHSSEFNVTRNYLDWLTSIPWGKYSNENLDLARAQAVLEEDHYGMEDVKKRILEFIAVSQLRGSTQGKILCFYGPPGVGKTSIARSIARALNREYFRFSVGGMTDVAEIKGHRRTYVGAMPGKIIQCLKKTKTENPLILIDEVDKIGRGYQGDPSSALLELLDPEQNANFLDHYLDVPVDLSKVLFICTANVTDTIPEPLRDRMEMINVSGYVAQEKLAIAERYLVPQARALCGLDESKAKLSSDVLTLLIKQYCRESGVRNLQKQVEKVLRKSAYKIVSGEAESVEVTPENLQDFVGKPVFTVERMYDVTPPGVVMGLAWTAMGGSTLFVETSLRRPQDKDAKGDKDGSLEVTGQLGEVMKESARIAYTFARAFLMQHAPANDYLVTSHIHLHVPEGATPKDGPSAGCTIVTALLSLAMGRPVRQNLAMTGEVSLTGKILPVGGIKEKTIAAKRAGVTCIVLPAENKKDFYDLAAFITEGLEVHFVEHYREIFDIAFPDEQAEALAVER
# protocolSummary: Inhibition of LONP1 (unknown origin) using QXL520-YRGITCSGRQK(5-FAM)-NH2 peptide as substrate incubated for 50 mins in presence of ATP by HTRF assay
Answer in µM, number only, no unit symbol.

For orientation, consider the following solved cases.
smilesCode | testedSystem | unitName | IC50
O=C(N[C@H](Cc1ccccc1)C(=O)N[C@@H](CCCc1ccccc1)B(O)O)c1cnccn1 | Lon protease homolog, mitochondrial (Homo sapiens, UniProt P36776) | µM | 0.018
O=C(N[C@H](Cc1ccccc1)C(=O)N[C@@H](CC1CCCCC1)B(O)O)c1cnccn1 | Lon protease homolog, mitochondrial (Homo sapiens, UniProt P36776) | µM | 0.092
CCC[C@@H](NC(=O)c1oc(C)nc1C)C(=O)N[C@@H](CCCc1ccccc1)B(O)O | Lon protease homolog, mitochondrial (Homo sapiens, UniProt P36776) | µM | 0.059

Task: Which value of IC50 has been reported for `CC(C)CCC[C@H](NC(=O)[C@@H](Cc1ccccc1)NC(=O)c1cnccn1)B(O)O` in the records?
Output: 0.065

Task: Do the same for `CCCC[C@@H](NC(=O)c1cnccn1)C(=O)N[C@@H](CC(C)C)B(O)O` please
Output: 0.093

Task: Do the same for `CC(C)C[C@H](NC(=O)C(C)(C)NC(=O)c1cnccn1)B(O)O` please
Output: 6.2

Task: Do the same for `O=C(N[C@H](Cc1ccccc1)C(=O)N[C@@H](CCc1ccccc1)B(O)O)c1cnccn1` please
Output: 0.034

Task: Do the same for `CCC[C@@H](NC(=O)c1cnccn1)C(=O)N[C@@H](CCCc1ccccc1)B(O)O` please
Output: 0.017

Task: Do the same for `CCCC[C@H](NC(=O)[C@@H](CCC)NC(=O)c1cnccn1)B(O)O` please
Output: 0.038

Task: Do the same for `CC[C@@H](NC(=O)c1cnccn1)C(=O)N[C@@H](CC(C)C)B(O)O` please
Output: 0.408

Task: Do the same for `CC(C)C[C@H](NC(=O)[C@@H](C)NC(=O)c1cnccn1)B(O)O` please
Output: 0.433

###

# testedSystem: 20S proteasome
# protocolSummary: Inhibition of human erythrocytes 20S proteasome using QXL520-YRGITCSGRQK(5-FAM)-NH2 fluorogenic peptide as substrate preincubated for 10 mins followed by substrate addition and measured after 60 mins by HTRF assay
# recordedConditions: erythrocyte
endpointLabel: IC50 (nM)
Answer in nM, number only, no unit symbol.

For orientation, consider the following solved cases.
smilesCode | endpointLabel | unitName | measValue
CC(C)C[C@H](NC(=O)[C@@H](C)NC(=O)c1cnccn1)B(O)O | IC50 | nM | 2680
O=C(N[C@H](Cc1ccccc1)C(=O)N[C@@H](CC1CCCCC1)B(O)O)c1cnccn1 | IC50 | nM | 541
CC(C)C[C@H](NC(=O)[C@H](NC(=O)c1cnccn1)C(C)C)B(O)O | IC50 | nM | 3970

Task: Which value of IC50 has been reported for `O=C(N[C@H](Cc1ccccc1)C(=O)N[C@@H](CCCCCBr)B(O)O)c1cnccn1` in the records?
Output: 1940

Task: Do the same for `O=C(N[C@H](Cc1ccccc1)C(=O)N[C@@H](CCc1ccccc1)B(O)O)c1cnccn1` please
Output: 262

Task: Do the same for `O=C(N[C@H](Cc1ccccc1)C(=O)N[C@@H](Cc1ccccc1)B(O)O)c1cnccn1` please
Output: 679
